- Test summary: Biodistribution in mouse plasma at 30 mg/kg, po administered as single dose measured after 8 hrs by LC-MS/MS method
- Format: ADME, organism-based
- Parameters: dose 30 mg/kg, route oral
- Test settings: read-out: Drug uptake
Endpoint: concentration at 8 h (ng/mL)

INSERT INTO results (compound_structure, endpoint, readout_unit, result) VALUES
  ('C[C@@H](c1ccc(-c2ccc(F)cc2F)cc1)N1CC[C@](CCO)(c2ccc(F)cc2)OC1=O', 'concentration at 8 h', 'ng/mL', 573);

###

- Test summary: Oral bioavailability in rat at 10 mg/kg
- Format: ADME, organism-based
- Test settings: in vivo
Endpoint: bioavailability (%)

INSERT INTO measurements (compound, endpoint, readout_unit, result) VALUES
  ('Cc1cccc(N2CCC(C)(c3ccccc3)OC2=O)c1 (single isomer, unassigned; isomer 1)', 'bioavailability', '%', 4),
  ('C[C@@H](c1ccc(-c2ccc(F)cc2)cc1)N1CC[C@](CCCO)(c2ccccc2)OC1=O', 'bioavailability', '%', 23),
  ('O=C1OC(CCO)(c2ccccc2)CCN1c1cccc(-c2ccc(F)cc2F)c1 (stereo unspecified)', 'bioavailability', '%', 44),
  ('C[C@@H](c1ccc(-c2ccc(F)cc2F)cc1)N1CC[C@](CCCO)(c2ccccc2)OC1=O', 'bioavailability', '%', 19),
  ('C[C@@H](c1ccc(-c2ccc(F)cc2)cc1)N1CC[C@](CCO)(c2ccc(F)cc2)OC1=O', 'bioavailability', '%', 83),
  ('C[C@@H](c1ccc(-c2ccc(F)cc2F)cc1)N1CC[C@](CCO)(c2ccc(F)cc2)OC1=O', 'bioavailability', '%', 94);

###

- Test summary: Biodistribution in mouse liver at 30 mg/kg, po administered as single dose measured after 8 hrs by LC-MS/MS method
- Type: ADME, organism-based
- Set-up: dose 30 mg/kg, route oral
- Test settings: read-out: Drug uptake
Endpoint: concentration at 8 h (ng/mL)

INSERT INTO assay_data (compound_structure, result) VALUES
  ('C[C@@H](c1ccc(-c2ccc(F)cc2F)cc1)N1CC[C@](CCO)(c2ccc(F)cc2)OC1=O', 1900);

###

- Test summary: Oral bioavailability in dog at 2 mg/kg
- Type: ADME, organism-based, Canis lupus familiaris
- Test settings: in vivo
Endpoint: bioavailability

INSERT INTO measurements (compound_structure, result) VALUES
  ('C[C@@H](c1ccc(-c2ccc(F)cc2F)cc1)N1CC[C@](CCO)(c2ccc(F)cc2)OC1=O', '16%');

###

- Test summary: Biodistribution in mouse plasma at 30 mg/kg, po administered as single dose measured after 1 hr by LC-MS/MS method
- Type: ADME, organism-based
- Design: dose 30 mg/kg, route oral
- Test settings: read-out: Drug uptake
Endpoint: concentration at 1 h (ng/mL)

INSERT INTO results (compound_structure, endpoint, result) VALUES
  ('C[C@@H](c1ccc(-c2ccc(F)cc2F)cc1)N1CC[C@](CCO)(c2ccc(F)cc2)OC1=O', 'concentration at 1 h', 5930);

###

- Test summary: Biodistribution in mouse adipose tissue at 30 mg/kg, po administered as single dose measured after 1 hr by LC-MS/MS method
- Format: ADME, organism-based
- Set-up: dose 30 mg/kg, route oral
- Test settings: read-out: Drug uptake
Endpoint: concentration at 1 h

INSERT INTO results (compound_structure, result) VALUES
  ('C[C@@H](c1ccc(-c2ccc(F)cc2F)cc1)N1CC[C@](CCO)(c2ccc(F)cc2)OC1=O', '5520 ng/mL');

###

- Test summary: AUC (infinity) in rat at 10 mg/kg, po
- Assay type: ADME, organism-based
- Design: time infinity, dose 10 mg/kg, route oral
- Test settings: plasma
Endpoint: AUC(0-inf) (ng·h/mL)

INSERT INTO assay_data (molecule, result) VALUES
  ('C[C@@H](c1ccc(-c2ccc(F)cc2)cc1)N1CC[C@](CCCO)(c2ccccc2)OC1=O', 450),
  ('C[C@@H](c1ccc(-c2ccc(F)cc2F)cc1)N1CC[C@](CCCO)(c2ccccc2)OC1=O', 915),
  ('C[C@@H](c1ccc(-c2ccc(F)cc2F)cc1)N1CC[C@](CCO)(c2ccc(F)cc2)OC1=O', 3870),
  ('O=C1OC(CCO)(c2ccccc2)CCN1c1cccc(-c2ccc(F)cc2F)c1 (stereo unspecified)', 1040),
  ('C[C@@H](c1ccc(-c2ccc(F)cc2)cc1)N1CC[C@](CCO)(c2ccc(F)cc2)OC1=O', 3170),
  ('Cc1cccc(N2CCC(C)(c3ccccc3)OC2=O)c1 (single isomer, unassigned; isomer 1)', 99);

###

- Test summary: Biodistribution in mouse liver at 30 mg/kg, po administered as single dose measured after 1 hr by LC-MS/MS method
- Type: ADME, organism-based
- Set-up: dose 30 mg/kg, route oral
- Test settings: read-out: Drug uptake
Endpoint: concentration at 1 h (ng/mL)

INSERT INTO measurements (compound_structure, endpoint, readout_unit, result) VALUES
  ('C[C@@H](c1ccc(-c2ccc(F)cc2F)cc1)N1CC[C@](CCO)(c2ccc(F)cc2)OC1=O', 'concentration at 1 h', 'ng/mL', 15300);

###

- Test summary: Biodistribution in mouse adipose tissue at 30 mg/kg, po administered as single dose measured after 4 hrs by LC-MS/MS method
- Type: ADME, organism-based
- Set-up: dose 30 mg/kg, route oral
- Test settings: read-out: Drug uptake
Endpoint: concentration at 4 h

INSERT INTO assay_data (compound_structure, result) VALUES
  ('C[C@@H](c1ccc(-c2ccc(F)cc2F)cc1)N1CC[C@](CCO)(c2ccc(F)cc2)OC1=O', '3160 ng/mL');

###

- Test summary: Biodistribution in mouse liver at 30 mg/kg, po administered as single dose measured after 4 hrs by LC-MS/MS method
- Format: ADME, organism-based
- Parameters: dose 30 mg/kg, route oral
- Test settings: read-out: Drug uptake
Endpoint: concentration at 4 h (ng/mL)

INSERT INTO measurements (compound_structure, endpoint, result) VALUES
  ('C[C@@H](c1ccc(-c2ccc(F)cc2F)cc1)N1CC[C@](CCO)(c2ccc(F)cc2)OC1=O', 'concentration at 4 h', 9810);

###

- Test summary: AUC (infinity) in dog at 2 mg/kg, po
- Format: ADME, organism-based, Canis lupus familiaris
- Parameters: time infinity, dose 2 mg/kg, route oral
- Test settings: plasma
Endpoint: AUC(0-inf) (ng·h/mL)

INSERT INTO results (compound_structure, result) VALUES
  ('C[C@@H](c1ccc(-c2ccc(F)cc2F)cc1)N1CC[C@](CCO)(c2ccc(F)cc2)OC1=O', 584);
